Reference source for all entries: ChEMBL document CHEMBL5665443

MEASURED_TARGET: Endonuclease III-like protein 1 (Homo sapiens) (UniProt P78549);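 note: enzyme assay tracking NTHL1 cutting and release of a quenched double-stranded DNA oligo substrate, read as fluorescence at 594 nm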
Sequence (P78549 whole entry): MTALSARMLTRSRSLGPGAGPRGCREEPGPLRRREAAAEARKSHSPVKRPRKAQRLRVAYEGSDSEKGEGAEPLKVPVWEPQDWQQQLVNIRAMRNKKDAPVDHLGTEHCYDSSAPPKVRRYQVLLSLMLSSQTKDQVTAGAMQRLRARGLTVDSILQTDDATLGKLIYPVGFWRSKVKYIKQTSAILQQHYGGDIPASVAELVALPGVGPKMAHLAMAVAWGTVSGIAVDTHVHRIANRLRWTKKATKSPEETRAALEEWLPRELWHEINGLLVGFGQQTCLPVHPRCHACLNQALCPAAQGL
EXPERIMENTAL_CONDITIONS: Compound Concentration 10.0 uM, Hit No
Description: Inhibition of NTHL1 by quantifying inhibition of NTHL1-mediated cleavage and dissociation of quenched duplex DNA oligonucleotides, measured as fluorescence at 594 nm.
Where a SMILES comes first, the peptide text is derived from it. [ ]: non-standard residue; d: D form. Arg(Me) = CNC(=N)NCCC[C@H](N)C(=O)O; d3Pal = N[C@H](Cc1cccnc1)C(=O)O; azaGly = NNC(=O)O
ATTRIBUTE_MEASURED: inhibition

compound="COC(=O)C1=C(C)NC(C)=C(C(=O)OC(C)C)C1c1cccc2nonc12 (stereo unspecified)" recorded_value=15.4%
compound="COc1ccc(C2(O)OC(=O)C(c3ccc4c(c3)OCO4)=C2Cc2cc(OC)c(OC)c(OC)c2)cc1 (stereo unspecified)" recorded_value=15.1%
compound="COc1cc(N)c(Cl)cc1C(=O)NC1CN2CCC1CC2 (stereo unspecified)" recorded_value=17.1%
compound=O=C1C[C@@H]2OCC=C3CN4CC[C@]56c7ccccc7N1[C@H]5[C@H]2[C@H]3C[C@H]46 recorded_value=10.5%
compound=COc1ccc(NC(=O)c2ccc(-c3ccc(-c4noc(C)n4)cc3C)cc2)cc1OCCN(C)C recorded_value=8.82%
compound="CC(C)NCC(O)c1ccc(N)c(C#N)c1 (stereo unspecified)" recorded_value=12.9%
compound=CCCn1c(=O)c2[nH]c(C3CCCC3)nc2n(CCC)c1=O recorded_value=-3.21%
compound=O=C(NCc1cccnc1OCC(F)(F)F)c1cncc(-c2ccc(Cl)cc2)c1 recorded_value=0.568%
compound="Cc1cccc(CN2CCN(C(c3ccccc3)c3ccc(Cl)cc3)CC2)c1 (stereo unspecified)" recorded_value=4.63%
compound="CC(C)CNc1nc(N2CCN(CC3CCCOC3)CC2)ncc1C(=O)NCc1ccccc1 (stereo unspecified)" recorded_value=-1.08%
compound=CCn1c(=O)c(C)cn(Cc2nnc(-c3ccc(F)c(O)c3F)s2)c1=O recorded_value=2%
compound=Cc1c(Cc2ccc3ccccc3n2)c2cc(F)ccc2n1CC(=O)O recorded_value=-6.14%
compound=CC[C@H](C(=O)Nc1ccccc1N1CCCC1)c1ccccc1 recorded_value=2.22%
compound="CNC(=N)NCCC[C@H](NC(=O)[C@H](CC(C)C)NC(=O)NNC(=O)[C@H](Cc1ccccc1)NC(=O)[C@H](CO)NC(=O)[C@H](CC(N)=O)NC(=O)[C@@H](Cc1cccnc1)NC(=O)[C@H](N)Cc1ccc(O)cc1)C(=O)NCC(N)=O (H-[dY][d3Pal]NSF[azaGly]L[Arg(Me)]G-NH2)" recorded_value=0.685%
compound=Cc1cc(-c2nncc3c(C(C)(C)C)c(OCc4ncnn4C)nn23)no1 recorded_value=1.39%
compound=N#CC1(c2ccccn2)CCN(Cc2cc(C(=O)O)c(=O)n3ccccc23)CC1 recorded_value=-9.18%
